Tested on: Moraxella catarrhalis
PROTOCOL SUMMARY: Antibacterial activity against standard Moraxella catarrhalis after 20 hrs by agar dilution method
Format: functional
One threshold, 0.4 µg/mL, splits the recorded MIC values: lower ones are label 1, equal or higher ones are label 0.

{"columns": ["STRUCTURE AS SMILES", "LABEL"],
 "data": [
  ["CC[C@H]1OC(=O)[C@H](C)[C@@H](O[C@H]2C[C@@](C)(OC)[C@@H](O)[C@H](C)O2)[C@H](C)[C@@H](O[C@@H]2O[C@H](C)C[C@H](N(C)C)[C@H]2O)[C@](C)(OC)C[C@@H](C)C(=O)[C@H](C)[C@@H](O)[C@]1(C)O", "label 1"],
  ["CCC(=O)O[C@@H]1CC(=O)O[C@H](C)C[C@@H]2OC(=O)N(CCc3ccccc3)[C@@H]2/C=C/[C@H](OC(C)=O)[C@H](C)C[C@H](CC=O)[C@H](O[C@@H]2O[C@H](C)[C@@H](O[C@H]3C[C@@](C)(O)[C@@H](OC(=O)CC)[C@H](C)O3)[C@H](N(C)C)[C@H]2O)[C@H]1OC", "label 0"],
  ["CCC(=O)O[C@@H]1CC(=O)O[C@H](C)C/C=C/C=C/[C@H](OC(C)=O)[C@H](C)C[C@H](CC=O)[C@H](O[C@@H]2O[C@H](C)[C@@H](O[C@H]3C[C@@](C)(OC(C)=O)[C@@H](OC(=O)CC)[C@H](C)O3)[C@H](N(C)C)[C@H]2O)[C@H]1OC", "label 0"],
  ["CCC(=O)O[C@@H]1CC(=O)O[C@H](C)C[C@@H]2OC(=O)N(Cc3ccccc3)[C@@H]2/C=C/[C@H](OC(C)=O)[C@H](C)C[C@H](CC=O)[C@H](O[C@@H]2O[C@H](C)[C@@H](O[C@H]3C[C@@](C)(O)[C@@H](OC(=O)CC)[C@H](C)O3)[C@H](N(C)C)[C@H]2O)[C@H]1OC", "label 0"],
  ["CCC(=O)O[C@@H]1CC(=O)O[C@H](C)C[C@H](O)[C@H](N(C)CCCc2cnc3ccccc3c2)/C=C/[C@H](OC(C)=O)[C@H](C)C[C@H](CC=O)[C@H](O[C@@H]2O[C@H](C)[C@@H](O[C@H]3C[C@@](C)(O)[C@@H](OC(=O)CC)[C@H](C)O3)[C@H](N(C)C)[C@H]2O)[C@H]1OC", "label 0"],
  ["CCC(=O)O[C@@H]1CC(=O)O[C@H](C)C[C@H](O)[C@H](N(C)CCCc2cnc3ccccc3c2)/C=C/[C@H](OC(C)=O)[C@H](C)C[C@H](CC=O)[C@H](O[C@@H]2O[C@H](C)[C@@H](O)[C@H](N(C)C)[C@H]2O)[C@H]1OC", "label 1"],
  ["CCC(=O)O[C@@H]1CC(=O)O[C@H](C)C[C@H](O)[C@H](N(C)CCCc2cccc3ccccc23)/C=C/[C@H](OC(C)=O)[C@H](C)C[C@H](CC=O)[C@H](O[C@@H]2O[C@H](C)[C@@H](O)[C@H](N(C)C)[C@H]2O)[C@H]1OC", "label 1"],
  ["CCC(=O)O[C@@H]1CC(=O)O[C@H](C)C[C@@H]2OC(=O)N(CCCCc3ccccc3)[C@@H]2/C=C/[C@H](OC(C)=O)[C@H](C)C[C@H](CC=O)[C@H](O[C@@H]2O[C@H](C)[C@@H](O[C@H]3C[C@@](C)(O)[C@@H](OC(=O)CC)[C@H](C)O3)[C@H](N(C)C)[C@H]2O)[C@H]1OC", "label 0"],
  ["CCC(=O)O[C@@H]1CC(=O)O[C@H](C)C[C@H](O)[C@H](N(C)CCCCCCc2ccccc2)/C=C/[C@H](OC(C)=O)[C@H](C)C[C@H](CC=O)[C@H](O[C@@H]2O[C@H](C)[C@@H](O[C@H]3C[C@@](C)(O)[C@@H](OC(=O)CC)[C@H](C)O3)[C@H](N(C)C)[C@H]2O)[C@H]1OC", "label 0"]
]}
